# Assay overview: qHTS assay to test for compound auto fluorescence at 460 nm (blue) in HepG2 cells (AID 720687); also: % is scaled to controls: 0 for no effect and ±100 for the full control effect
# Experimental conditions: autofluorescence 405/460 nm, 1 h; series mostly up to 91.3 µM
Calls of active or inactive are those of the source. Calls follow the shape of the dose curve; as a rule, active = well fitted curve in the direction sought with a large enough effect in the repeat runs; inconclusive = weak or mixed curves; inactive = flat fitted curve, though single readings scatter.
Assay metric: fluorescence, % of fluorescent control

Some compounds with known fluorescence, % of fluorescent control results, for comparison:
1. Cc1ccccc1N=C(N)N=C(N)N	inactive
2. CCOC(=O)COc1cc(-n2ncc(C(F)(F)F)c(C)c2=O)c(F)cc1Cl	inactive
3. O=S(=O)(O)c1cccc2ccccc12	inactive
4. CCCO[Si](OCCC)(OCCC)OCCC	inactive
5. CC(C)(CCC(=O)O)C(=O)O	inactive

Field fluorescence, % of fluorescent control (entry Cc1ccnc(NS(=O)(=O)c2ccc(N)cc2)n1 ) reads -0.0164% [at 18.6 µM] (inactive)

Field fluorescence, % of fluorescent control (entry COc1cc(-c2ccc(=O)[nH]n2)ccc1OC(F)F ) reads inactive

Field fluorescence, % of fluorescent control (entry CCCCCC(C)N (centres undefined) ) reads inactive

Field fluorescence, % of fluorescent control (entry C=CC(C)(CCC=C(C)C)OC(=O)CC (centres undefined) ) reads inactive

Field fluorescence, % of fluorescent control (entry CC(CO)(CO)[N+](=O)[O-] ) reads inactive

Field fluorescence, % of fluorescent control (entry FB(F)F ) reads inactive

Field fluorescence, % of fluorescent control (entry Cc1cc(C)c(N=Nc2c(O)c(S(=O)(=O)O)cc3cc(S(=O)(=O)O)ccc23)cc1C ) reads -0.0207% [at 9.17 µM] (inactive)

Field fluorescence, % of fluorescent control (entry CN(C)CCCN(C)CCCN(C)C ) reads inactive

Field fluorescence, % of fluorescent control (entry COc1cc(C)nc(-n2nc(C)cc2OC)n1 ) reads -0.112% [at 18.6 µM] (inactive)

====

Listed here: items and their measured activation.
# Measured target: Nuclear receptor subfamily 1 group I member 2 (Homo sapiens) (UniProt O75469)
# Sequence (O75469 whole entry, looked up): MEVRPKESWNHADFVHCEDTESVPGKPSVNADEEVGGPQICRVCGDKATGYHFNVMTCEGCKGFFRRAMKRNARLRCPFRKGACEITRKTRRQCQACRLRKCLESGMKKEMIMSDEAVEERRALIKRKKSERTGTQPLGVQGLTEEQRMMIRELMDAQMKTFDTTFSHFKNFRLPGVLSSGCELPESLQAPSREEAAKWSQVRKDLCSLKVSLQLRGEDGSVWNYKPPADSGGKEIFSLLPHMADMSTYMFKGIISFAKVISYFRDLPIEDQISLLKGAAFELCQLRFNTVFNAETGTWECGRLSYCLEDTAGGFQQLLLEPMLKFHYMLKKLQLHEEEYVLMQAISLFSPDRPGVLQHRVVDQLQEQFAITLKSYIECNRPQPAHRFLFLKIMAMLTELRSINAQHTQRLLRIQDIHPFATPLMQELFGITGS
# Assay overview: Human pregnane X receptor (PXR) small molecule agonists, qHTS assay (AID 1346982); also: % is scaled to controls: 0 for no effect and ±100 for the full control effect; nearly all actives have a fitted effect of over 35% in size
# Experimental conditions: PXR-Luc HepG2, CYP3A4 luciferase reporter, 24 h; series mostly up to 92.4 µM
Results filed as inconclusive are left out. The source made the active and inactive calls. The call rests on the fitted dose curve; in most records, active means well fitted activation curve with a large enough effect in the repeat runs; inconclusive means weak or mixed curves; inactive means no such curve, though single readings can be large or run the other way.

Lab entry: Nuclear receptor subfamily 1 group I member 2 (Homo sapiens) (UniProt O75469) assay, molecule CCN[C@@H]1C[C@H](N)[C@@H](OC2OC(CN)=CCC2N)[C@H](O)[C@H]1O[C@H]1OC[C@](C)(O)[C@H](NC)[C@H]1O (some centres undefined) , activation = -3.06% [at 0.349 µM] (inactive)

Lab entry: Nuclear receptor subfamily 1 group I member 2 (Homo sapiens) (UniProt O75469) assay, molecule Cc1cc(C)c(N=Nc2c(O)c(S(=O)(=O)O)cc3cc(S(=O)(=O)O)ccc23)cc1C , activation = -9.92% [at 8.39 µM] (inactive)

Lab entry: Nuclear receptor subfamily 1 group I member 2 (Homo sapiens) (UniProt O75469) assay, molecule C[N+]1(CC2COC(c3ccccc3)(c3ccccc3)O2)CCCCC1 (centres undefined) , activation = 5.26% [at 19 µM] (inactive)

Lab entry: Nuclear receptor subfamily 1 group I member 2 (Homo sapiens) (UniProt O75469) assay, molecule CCCCN1C=CN(C)C1 , activation = 3.9% [at 19 µM] (inactive)

FYI, the data here is from PubChem BioAssay (Tox21).
